The compounds listed here are annotated with their Ki.
tested_system: Adrenergic receptor alpha-1 (Homo sapiens, UniProt P35348+P25100+P35368)
assay_details: Binding affinity against Alpha-1 adrenergic receptor
Assay type: protein assay
measured_attribute: Ki (nM)

[
  {
    "compound": "COc1cc2c(cc1OC)C1c3[nH]c4ccccc4c3CCN1CC2 (centres undefined)",
    "tested_system": "Adrenergic receptor alpha-1 (Homo sapiens, UniProt P35348+P25100+P35368)",
    "measured_attribute": "Ki",
    "reported": 17
  },
  {
    "compound": "c1ccc2c3c([nH]c2c1)C1c2[nH]c4ccccc4c2CCN1CC3",
    "tested_system": "Adrenergic receptor alpha-1 (Homo sapiens, UniProt P35348+P25100+P35368)",
    "measured_attribute": "Ki",
    "reported": 76
  },
  {
    "compound": "c1ccc2c(c1)CCN1CCc3c([nH]c4ccccc34)C21 (centres undefined)",
    "tested_system": "Adrenergic receptor alpha-1 (Homo sapiens, UniProt P35348+P25100+P35368)",
    "measured_attribute": "Ki",
    "reported": 79
  },
  {
    "compound": "CN1CCc2ccccc2Cc2[nH]c3ccccc3c2CC1",
    "tested_system": "Adrenergic receptor alpha-1 (Homo sapiens, UniProt P35348+P25100+P35368)",
    "measured_attribute": "Ki",
    "reported": 11
  }
]

Numbers sourced from ChEMBL document CHEMBL1133101.
